Recorded values, source ChEMBL document CHEMBL4261535.

# METHOD_SUMMARY: n-octanol-water partition co-efficient, log P of the compound
# Assay type: physicochemical
OBSERVABLE: logP

CCCC1C(C(=O)OCc2cccnc2)=C(C)NC2=C1C(=O)CCC2 (stereo unspecified)
2.23
CC1=C(C(=O)OCc2cccnc2)C(c2ccc(C#N)cc2)C2=C(CCCC2=O)N1 (stereo unspecified)
1.36
COc1ccc(C2C(C(=O)OCc3cccnc3)=C(C)NC3=C2C(=O)CCC3)cc1 (stereo unspecified)
1.53
CC1=C(C(=O)OCc2ccccn2)C(c2cccs2)C2=C(CCCC2=O)N1 (stereo unspecified)
1.77
CC1=C(C(=O)OCc2cccnc2)C(c2ccccc2)C2=C(CCCC2=O)N1 (stereo unspecified)
2.35
CC1=C(C(=O)OCc2ccccn2)C(c2ccc(C#N)cc2)C2=C(CCCC2=O)N1 (stereo unspecified)
1.73
